Source listed as paper PMC10125367.

Target: KRAS(Q61H) (Homo sapiens, UniProt P01116, Q61H)
Assay: Microscale thermophoresis
endpoint.name: pKd
Notebook: values listed as pKd are -log10 of the concentration (mol/L).

Which pKd value belongs to O=C(O)c1cc(NC(=O)C2CC2c2ccccc2)ccc1O (stereo not shown) ? 7.70

###

Tested on: MDR1 (P-gp)
Assay: Permeability and efflux in MDR1-MDCK cell monolayer system
Type: in vitro ADME
Conditions: dog, MDCK-MDR1, Papparent efflux ratio (ER)
endpoint.name: efflux ratio
The answer should be a number; do not append a unit.

Query for MDR1 (P-gp): what efflux ratio does the record show for CC(C)NCC(O)COc1cccc2ccccc12 (stereo not drawn) [propranolol] ? 0.48

// fetch MDR1 (P-gp) efflux ratio for CC(C)CN(C[C@@H](O)[C@H](Cc1ccccc1)NC(=O)O[C@H]1CCOC1)S(=O)(=O)c1ccc(N)cc1 [amprenavir] 10.3

Identify the measured efflux ratio of O=C(O)c1cc(NC(=O)C2CC2c2ccccc2)ccc1O (stereo not drawn) [ACA-14] for MDR1 (P-gp). 0.65
